// values below are reported GI50
tested on: SK-MEL-5; test: NCI tumour cell line growth inhibition, 48 h
The source made the active and inactive calls. Cut-off read from the data, not from the text of the source: active = GI50 up to about 1.1 µM and inactive = higher.

Reference set, count: 8
C[C@@H]1CCC([C@@H](C)[C@H]2CC[C@H]3[C@@H]4CC[C@H]5C[C@@H](O)CC[C@]5(C)[C@H]4CC[C@]23C)=NC1	7.64 µM (inactive)
CSc1nc2c(ncn2C2OC(CO)C(O)C(O)C2O)c(=O)n1C (centres undefined)	> 100 µM (inactive)
Cc1cccc(NC(=O)C(=O)Cc2nc3ccccc3nc2O)c1C	> 100 µM (inactive)
COC(=O)c1ccccc1CC1Cc2ccc3c(c2C1=O)CCC3 (centres undefined)	23 µM (inactive)
c1csc(-c2ccsc2-c2ccsc2)c1	70 µM (inactive)
Cc1c2c(OCC(O)CN3CCN(c4ccccc4)CC3)nn(C)c(=O)c2c(C)n1-c1ccccc1 (centres undefined)	16.6 µM (inactive)
COC(=O)C1=C(O)C(C(=O)OC)[C@@]2(O)[C@@H](C(=O)OC)C(c3ccc(OC(=O)/C(=C/c4ccccc4)c4ccccc4)cc3)C[C@@H]1[C@@H]2C(=O)OC (some centres undefined)	26.8 µM (inactive)
CCOC(=O)C1(C/C=C\CBr)CCCCCCCCCCC1=O (centres undefined)	12.8 µM (inactive)

Now examine the next entry.
Problem: Specify measured GI50 for "Cc1ccc(S(=O)(=O)N(CCN)c2cc3c4c(c2)Oc2cccc5c2C4c2c(cccc2O3)O5)cc1" .
Solution: 19.9 µM (inactive)
